Molecular target: T1, human GIP receptor (human) (UniProt P48546)
T1 sequence (looked up): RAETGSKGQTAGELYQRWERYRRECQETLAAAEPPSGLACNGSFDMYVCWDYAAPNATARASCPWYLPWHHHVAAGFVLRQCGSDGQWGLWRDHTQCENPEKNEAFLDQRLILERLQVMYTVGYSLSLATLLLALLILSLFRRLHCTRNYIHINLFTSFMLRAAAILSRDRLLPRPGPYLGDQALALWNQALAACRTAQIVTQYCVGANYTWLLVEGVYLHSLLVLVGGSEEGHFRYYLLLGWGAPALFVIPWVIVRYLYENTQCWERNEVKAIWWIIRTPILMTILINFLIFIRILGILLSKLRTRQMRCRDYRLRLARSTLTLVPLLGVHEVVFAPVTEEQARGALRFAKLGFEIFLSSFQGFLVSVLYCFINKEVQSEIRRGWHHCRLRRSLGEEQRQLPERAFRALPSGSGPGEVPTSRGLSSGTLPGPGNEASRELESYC
Test: cell-based or functional assay
Reported Relative cAMP EC50 values for the following binders.
Field: numeric (nM). Do not append units.

Examples from the recorded data:
binder: YXQGTFTSDXSQXLDXKAQXAFIEYLIEAGPSSGEPPPSGS (not fully specified; non-natural residues, (γGlu)2-C18 diacid lysine acylation, C-terminal amide; synthetic construct; SITE 2: note = 2-Aminoisobutyric Acid; SITE 10: note = 3-(4-Pyridyl)-L-alanine; SITE 13: note = alpha-methyl-leucine; SITE 16: note = L-ornithine; SITE 17: note = Lysine is chemically modified through conjugation of the epsilon-amino group of the Lysine side chain with (gamma-Gl)) [Example 1019]
unit string: nM
Relative cAMP EC50: 0.169
--
binder: YXQGTFTSDFSKXLDKKAQXAFIEYLLAGGPSSGAPPPGGE (acylated Lys, Aib, αMeL, C-terminal amide; synthetic construct; SITE 2: note = 2-Aminoisobutyric Acid; SITE 13: note = alpha-methyl-leucine; SITE 17: note = Lysine is chemically modified through conjugation of the epsilon-amino group of the Lysine side chain with (2-[2-(2-Amino-ethoxy)-ethoxy]-acetyl)-(gamma-Glu)-CO-(CH2) 18-CO2H; SITE 20: n) [Example 15]
unit string: nM
Relative cAMP EC50: 0.201

Consider now this further binder.
### Prompt Requested read-out: Relative cAMP EC50. Entry: YXQGTFTSDFSQXLDKKAQXAFIEYLLAGGPSSGAPPPEGS (synthetic construct; SITE 2: note = 2-Aminoisobutyric Acid; SITE 13: note = alpha-methyl-leucine; SITE 17: note = Lysine is chemically modified through conjugation of the epsilon-amino group of the Lysine side chain with (2-[2-(2-Amino-ethoxy)-ethoxy]-acetyl)-(gamma-Glu)-CO-(CH2) 16-CO2H; SITE 20: n) [Example 772]
### Response 0.115

Values were extracted from patent US20240270821A1.
